# measured_on: T1, human CXCR2 (human, UniProt P25025 1-360)
# T1 construct: also called CXC chemokine receptor 2; hCXCR2
# T1 sequence: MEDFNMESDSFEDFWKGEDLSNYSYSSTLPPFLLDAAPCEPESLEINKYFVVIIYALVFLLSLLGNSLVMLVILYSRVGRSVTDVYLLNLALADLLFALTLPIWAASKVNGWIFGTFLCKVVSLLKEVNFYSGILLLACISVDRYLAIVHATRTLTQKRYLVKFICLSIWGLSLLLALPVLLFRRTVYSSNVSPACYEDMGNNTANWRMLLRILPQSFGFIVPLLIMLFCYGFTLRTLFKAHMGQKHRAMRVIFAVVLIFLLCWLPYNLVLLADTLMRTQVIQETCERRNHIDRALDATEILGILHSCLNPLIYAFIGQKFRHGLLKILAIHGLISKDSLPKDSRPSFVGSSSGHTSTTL
# method_summary: flow cytometry, CXCR2-transfected Expi293F cells
The following binders are listed with their measured Fold Improvement over 4A8 WT values.
Return type: number; implicit unit fold.

Use the examples below as a reference point.
BKO-4A8 combinatorial variant 1b (antibody, human IgG4 S228P, lambda, V domains shown, IgG4 S228P, lambda) VH: EVQLLESGGGLVQPGGSLRLSCAASGFTFSSSTQSWVRQAPGKGLEWVSAISGRGRSTYYADSVKGRFTISRDNSRNTLYLQMNSLRAEDTAVYYCAIQMGYWGQGILVTVSS VL: QSALTQPPSASGSPGQSVTISCIGTSSDVGGYNYVSWYQQHPDKAPKLMIYEVSKRPSGVPDRFSGSKSGNTASLTVSGLQAEDEADYYCSSYAGSNNFGVFGGGTKLTVLG    1.33
BKO-4A8 combinatorial variant 7b (antibody, human IgG4 S228P, lambda, V domains shown, IgG4 S228P, lambda) VH: EVQLLESGGGLVQPGGSLRLSCAASGFTFSSSTQSWVRQPPGKGLEWVSAISGRGRSTYYADSVKGRFTISRDNSRNTLYLQMNSLRAEDTAVYYCAKQKGYWGQGILVTVSS VL: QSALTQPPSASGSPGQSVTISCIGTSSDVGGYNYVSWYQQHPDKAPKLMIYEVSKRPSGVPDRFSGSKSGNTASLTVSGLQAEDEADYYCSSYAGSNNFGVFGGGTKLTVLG    0.63
BKO-4A8 combinatorial variant 3b (antibody, human IgG4 S228P, lambda, V domains shown, IgG4 S228P, lambda) VH: EVQLLESGGGLVQPGGSLRLSCAASGFTFSSSTQSWVRQPPGKGLEWVSAISGRGRSTYYADSVKGRFTISRDNSKNTLYLQMNSLRAEDTAVYYCAIQMGYWGQGILVTVSS VL: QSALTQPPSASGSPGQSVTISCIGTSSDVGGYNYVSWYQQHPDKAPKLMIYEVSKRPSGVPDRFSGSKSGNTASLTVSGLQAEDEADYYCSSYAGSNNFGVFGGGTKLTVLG    4
BKO-4A8 combinatorial variant 10c (antibody, human IgG4 S228P, lambda, V domains shown, IgG4 S228P, lambda) VH: EVQLLESGGGLVQPGGSLRLSCAASGFTFSSSTMSWVRQAPGKGLEWVSAISGRGRNTYYADSVKGRFTISRDNSRNTLYLQMNSLRAEDTAVYYCAKQKGYWGQGILVTVSS VL: QSALTQPPSASGSPGQSVTISCIGTSSDVGGYNYVSWYQQHPGKAPKLMIYEVSKRPSGVPDRFSGSKSGNTASLTVSGLQAEDEADYYCSSYAGSNNFGVFGGGTKLTVLG    1
BKO-4A8 combinatorial variant 2c (antibody, human IgG4 S228P, lambda, V domains shown, IgG4 S228P, lambda) VH: EVQLLESGGGLVQPGGSLRLSCAASGFTFSSSTQSWVRQPPGKGLEWVSAISGRGRSTYYADSVKGRFTISRDNSRNTLYLQMNSLRAEDTAVYYCAIQMGYWGQGILVTVSS VL: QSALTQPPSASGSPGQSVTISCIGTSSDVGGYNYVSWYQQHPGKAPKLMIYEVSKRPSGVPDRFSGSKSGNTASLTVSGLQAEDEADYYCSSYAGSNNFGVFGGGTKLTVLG    1.67

Looking for the measured Fold Improvement over 4A8 WT of BKO-4A8 combinatorial variant 9b (antibody, human IgG4 S228P, lambda, V domains shown, IgG4 S228P, lambda) VH: EVQLLESGGGLVQPGGSLRLSCAASGFTFSSSTQSWVRQAPGKGLEWVSAISGRGRSTYYADSVKGRFTISRDNSKNTLYLQMNSLRAEDTAVYYCAIQKGYWGQGILVTVSS VL: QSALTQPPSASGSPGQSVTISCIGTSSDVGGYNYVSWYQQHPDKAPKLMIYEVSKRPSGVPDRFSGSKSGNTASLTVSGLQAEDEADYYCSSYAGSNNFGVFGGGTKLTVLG , can you help?
3

Looking for the measured Fold Improvement over 4A8 WT of BKO-4A8 combinatorial variant 6c (antibody, human IgG4 S228P, lambda, V domains shown, IgG4 S228P, lambda) VH: EVQLLESGGGLVQPGGSLRLSCAASGFTFSSSTQSWVRQPPGKGLEWVSAISGRGRSTYYADSVKGRFTISRDNSKNTLYLQMNSLRAEDTAVYYCAKQKGYWGQGILVTVSS VL: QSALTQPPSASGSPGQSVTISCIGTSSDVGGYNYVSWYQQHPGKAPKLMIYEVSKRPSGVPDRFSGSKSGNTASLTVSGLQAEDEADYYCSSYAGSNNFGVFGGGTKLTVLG , can you help?
0.44

Looking for the measured Fold Improvement over 4A8 WT of BKO-4A8 combinatorial variant 7c (antibody, human IgG4 S228P, lambda, V domains shown, IgG4 S228P, lambda) VH: EVQLLESGGGLVQPGGSLRLSCAASGFTFSSSTQSWVRQPPGKGLEWVSAISGRGRSTYYADSVKGRFTISRDNSRNTLYLQMNSLRAEDTAVYYCAKQKGYWGQGILVTVSS VL: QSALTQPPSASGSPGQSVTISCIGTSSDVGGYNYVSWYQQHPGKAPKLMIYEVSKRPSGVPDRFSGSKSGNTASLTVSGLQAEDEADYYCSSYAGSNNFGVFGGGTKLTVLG , can you help?
0.5

These entries and their values trace back to patent US20240301076A1.
